- Experimental system: WT E. coli gyrase (Escherichia coli, UniProt P0AES4+P0AES6)
- Construct: alternative cryo-EM approach involving full-length E. coli gyrase; 10-His (cleaved yes); Twin-Strep (cleaved yes)
- Assay overview: biochemical
- Test parameters: Gyrase^WT; mean ± s.d. of triplicate; read-out: CC50 (the source's name)
Assay readout: pEC50
Please treat pEC50 as minus the base-10 logarithm of the molar concentration.

In the examples that follow, each entry is paired with its recorded pEC50.
Query: I am curious: what pEC50 value has been reported for COc1c(NC(=O)c2ccc(NC(=O)c3ccc(NC(=O)[C@H](CC#N)NC(=O)c4ccc(NC(=O)/C(C)=C/c5ccc(O)cc5)cc4)cc3)c(OC)c2O)ccc(C(=O)O)c1O [Albicidin] ?
Reply: 7.34

Query: Return reported pEC50; argument: CC(C)Oc1c(NC(=O)c2ccc(NC(=O)[C@H](Cc3c[nH]nn3)NC(=O)c3ccc(NC(=O)c4ccc(C#N)cc4)cn3)cn2)ccc(C(=O)Nc2ccc(C(=O)O)cc2)c1O [Albi-1]
Reply: 8.10

// switching to the query molecule
Query: Entry COc1c(NC(=O)c2ccc(NC(=O)c3ccc(NC(=O)[C@H](Cc4c[nH]nn4)NC(=O)c4ccc(NC(=O)c5ccc6nc(C)ccc6c5)cc4)cn3)c(OC)c2O)ccc(C(=O)O)c1O [Albi-3] : reported pEC50 = ?
Reply: 7.60

* * *

Recorded MIC for the following compounds
- Tested on: M. phlei DSM750
- Assay overview: MIC determination (microdilution, M07-A9)
- Format: cell-based
- Test parameters: Mycolicibacterium phlei, first value in cell (biological replicate)
- Method: MIC values were determined according to the ninth edition of the Approved Standard M07-A9. […]
Entry rule: numbers only, all in µg/mL.

Previously resolved entries follow.
Query: # get_value(readout='MIC', item= "COc1c(NC(=O)c2ccc(NC(=O)c3ccc(NC(=O)[C@H](Cc4c[nH]nn4)NC(=O)c4ccc(NC(=O)c5ccc6nc(C)ccc6c5)cc4)cn3)c(OC)c2O)ccc(C(=O)O)c1O" )
Reply: 0.5

Query: Endpoint output: MIC of "CC(C)Oc1c(NC(=O)c2ccc(NC(=O)[C@H](Cc3c[nH]nn3)NC(=O)c3ccc(NC(=O)c4ccc(C#N)cc4)cn3)cn2)ccc(C(=O)Nc2ccc(C(=O)O)cc2)c1O" . Value?
Reply: 0.25

Next:
Query: What value of MIC has been recorded for this entry: "COc1c(NC(=O)c2ccc(NC(=O)c3ccc(NC(=O)[C@H](Cc4c[nH]nn4)NC(=O)c4ccc(C#Cc5ccc(C#N)cc5)cc4)cn3)c(OC)c2O)ccc(C(=O)O)c1O"
Reply: 0.25

Query: Entry under review: "COc1c(NC(=O)c2ccc(NC(=O)c3ccc(NC(=O)[C@H](CC#N)NC(=O)c4ccc(NC(=O)/C(C)=C/c5ccc(O)cc5)cc4)cc3)c(OC)c2O)ccc(C(=O)O)c1O" . Reported MIC?
Reply: 2

Query: Any idea what MIC was measured for "COc1c(NC(=O)c2ccc(NC(=O)c3ccc(NC(=O)[C@H](Cc4c[nH]nn4)NC(=O)c4ccc(NC(=O)/C(C)=C/c5ccc(O)cc5)cc4)cn3)c(OC)c2O)ccc(C(=O)O)c1O" ?
Reply: 0.125

* * *

A collection of compounds and their measured % maximal cleavage
- Experimental system: E. coli gyrase GyrA^S83L (Escherichia coli, UniProt P0AES4+P0AES6, S83L)
- Construct: alternative cryo-EM approach involving full-length E. coli gyrase; 10-His (cleaved yes); Twin-Strep (cleaved yes); made in house
- Assay overview: DNA gyrase cleavage assay (CC50, % cleaved DNA)
- Assay type: biochemical
- Test parameters: GyrAS83L; average of 3 independent assays
- Description: For DNA gyrase supercoiling assays to characterize gyrase mutants, 15 µl reactions were set up containing 250 ng of relaxed DNA, E. coli gyrase supercoiling buffer (35 mM Tris–Cl pH 7.5, 24 mM KCl, 4 mM MgCl2, 2 mM DTT, 1.8 mM spermidine, 1 mM ATP, 6.0% (w/v) glycerol, and 0.1 mg ml^−1 BSA), gyrase subunits and inhibitors. […] DNA cleavage gels were analysed using densitometry (ImageJ). Experiments were carried out in triplicate and expressed as mean ± s.d. […]
Form entry: value (%) — number only.

Would you please look over these solved cases?
Query: % maximal cleavage; subject: "CC(C)Oc1c(NC(=O)c2ccc(NC(=O)[C@H](Cc3c[nH]nn3)NC(=O)c3ccc(NC(=O)c4ccc(C#N)cc4)cn3)cn2)ccc(C(=O)Nc2ccc(C(=O)O)cc2)c1O"
Reply: 80

Query: Recorded % maximal cleavage for "COc1c(NC(=O)c2ccc(NC(=O)c3ccc(NC(=O)[C@H](Cc4c[nH]nn4)NC(=O)c4ccc(NC(=O)c5ccc6nc(C)ccc6c5)cc4)cn3)c(OC)c2O)ccc(C(=O)O)c1O" , please?
Reply: 85

Query: Data request, read-out % maximal cleavage, for "COc1c(NC(=O)c2ccc(NC(=O)c3ccc(NC(=O)[C@H](Cc4c[nH]nn4)NC(=O)c4ccc(NC(=O)c5ccc6cc(O)ccc6c5)cc4)cn3)c(OCCN)c2O)ccc(C(=O)O)c1O"
Reply: 72

Proceed to the following item.
Query: // query % maximal cleavage value for entry "COc1c(NC(=O)c2ccc(NC(=O)c3ccc(NC(=O)[C@H](CC#N)NC(=O)c4ccc(NC(=O)/C(C)=C/c5ccc(O)cc5)cc4)cc3)c(OC)c2O)ccc(C(=O)O)c1O"
Reply: 68

* * *

- Experimental system: E. coli gyrase GyrA^V70A (Escherichia coli, UniProt P0AES4+P0AES6, V70A)
- Construct: alternative cryo-EM approach involving full-length E. coli gyrase; 10-His (cleaved yes); Twin-Strep (cleaved yes); made in house
- Assay overview: DNA gyrase cleavage assay (CC50, % cleaved DNA)
- Assay type: biochemical
- Test parameters: GyrAV70A; average of 3 independent assays
Assay readout: % maximal cleavage (%)
The reply should contain only the number, in %.

Query: Which % maximal cleavage is reported for this molecule? COc1c(NC(=O)c2ccc(NC(=O)c3ccc(NC(=O)[C@H](Cc4c[nH]nn4)NC(=O)c4ccc(NC(=O)c5ccc6cc(O)ccc6c5)cc4)cn3)c(OCCN)c2O)ccc(C(=O)O)c1O [Albi-2]
Reply: 58

Query: Record request: % maximal cleavage value, item COc1c(NC(=O)c2ccc(NC(=O)c3ccc(NC(=O)[C@H](CC#N)NC(=O)c4ccc(NC(=O)/C(C)=C/c5ccc(O)cc5)cc4)cc3)c(OC)c2O)ccc(C(=O)O)c1O [Albicidin]
Reply: 80

Query: Sample COc1c(NC(=O)c2ccc(NC(=O)c3ccc(NC(=O)[C@H](Cc4c[nH]nn4)NC(=O)c4ccc(NC(=O)c5ccc6nc(C)ccc6c5)cc4)cn3)c(OC)c2O)ccc(C(=O)O)c1O [Albi-3] — what was its % maximal cleavage?
Reply: 63

New cases:
Query: Name the recorded % maximal cleavage for CC(C)Oc1c(NC(=O)c2ccc(NC(=O)[C@H](Cc3c[nH]nn3)NC(=O)c3ccc(NC(=O)c4ccc(C#N)cc4)cn3)cn2)ccc(C(=O)Nc2ccc(C(=O)O)cc2)c1O [Albi-1] .
Reply: 90

* * *

Quick list: % maximal cleavage per entry.
- Experimental system: WT E. coli gyrase (Escherichia coli, UniProt P0AES4+P0AES6)
- Construct: alternative cryo-EM approach involving full-length E. coli gyrase; 10-His (cleaved yes); Twin-Strep (cleaved yes); made in house
- Assay overview: biochemical
- Type: biochemical
- Test parameters: GyraseWT; average of 3 independent assays
Use % as the unit, but write only the number.

Observe how each entry below is paired with its result.
Query: # get_value(readout= % maximal cleavage, system= WT E. coli gyrase (Escherichia coli, UniProt P0AES4+P0AES6)) for "COc1c(NC(=O)c2ccc(NC(=O)c3ccc(NC(=O)[C@H](Cc4c[nH]nn4)NC(=O)c4ccc(NC(=O)c5ccc6nc(C)ccc6c5)cc4)cn3)c(OC)c2O)ccc(C(=O)O)c1O"
Reply: 66

Query: // lookup % maximal cleavage | system=WT E. coli gyrase (Escherichia coli, UniProt P0AES4+P0AES6) | key= "COc1c(NC(=O)c2ccc(NC(=O)c3ccc(NC(=O)[C@H](Cc4c[nH]nn4)NC(=O)c4ccc(NC(=O)c5ccc6cc(O)ccc6c5)cc4)cn3)c(OCCN)c2O)ccc(C(=O)O)c1O"
Reply: 78

Query: Query the reported % maximal cleavage for WT E. coli gyrase (Escherichia coli, UniProt P0AES4+P0AES6); item: "CC(C)Oc1c(NC(=O)c2ccc(NC(=O)[C@H](Cc3c[nH]nn3)NC(=O)c3ccc(NC(=O)c4ccc(C#N)cc4)cn3)cn2)ccc(C(=O)Nc2ccc(C(=O)O)cc2)c1O"
Reply: 73

Please turn your attention to the following entry.
Query: Can you look up % maximal cleavage on WT E. coli gyrase (Escherichia coli, UniProt P0AES4+P0AES6) for "COc1c(NC(=O)c2ccc(NC(=O)c3ccc(NC(=O)[C@H](CC#N)NC(=O)c4ccc(NC(=O)/C(C)=C/c5ccc(O)cc5)cc4)cc3)c(OC)c2O)ccc(C(=O)O)c1O" ?
Reply: 81
